Each recorded value in this set is attributed to the RNAGym collection of RNA variant scans (doi:10.1126/science.aae0568).

B1: tRNA (parent)
chain: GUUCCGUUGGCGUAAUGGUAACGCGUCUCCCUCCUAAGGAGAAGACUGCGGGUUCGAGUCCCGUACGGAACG

Variants of: B1
ASSAY_DETAILS: yeast fitness relative to wild type (ratio to wild type); higher = fitter; tRNA-Arg(CCU), competitive growth, 37 C, YPD
Variants at the floor of the assay were thinned out.
READOUT: yeast fitness
Write no unit; give the number alone.

Solved entries:
Input C4U G38C C61U . Output yeast fitness: 0.54

The variant identified as G41C A43U U64C registered its yeast fitness at 0.959

Continuing:
GET /value?item= G41C A42U &field=yeast fitness returns 0.79

Input G25A C30A G67U . Output yeast fitness: 0.776

yeast fitness reported for this variant A42U A57C A65U : 0.589

Looking up U2C C29U G56A , I found its yeast fitness recorded as 0.625

yeast fitness reported for this variant U13G A20U A69U : 0.708

The variant U3C A20G showed yeast fitness equal to 0.917

Reported yeast fitness of C11U A21U C27A : 0.576
